System: HIV-1 IIIB strain
measurement_protocol: MT-4 HIV Wild Type Virus Infection Assay (IIIB Virus)
Format: cell-based
run_conditions: Human immunodeficiency virus 1, IIIB, MT4, 120 h, MT-4 cells acutely infected with HIV-1 IIIB, 5 day incubation, Cell-titer glo
pEC50: −log10 of the molar value.
Rule: pEC50 under 7 gives n, otherwise y.

Hello, I need to know if COC(=O)N[C@H](C(=O)N[C@@H](Cc1ccc(C#Cc2cnc(N3CC4CCC(C3)N4C3COC3)nc2)cc1)[C@H](CN(Cc1c(F)cc(-c2ccn(C(F)F)n2)cc1F)NC(=O)[C@@H](NC(=O)OC)C(C)(C)C(F)(F)F)OC(=O)CC(C)(C)c1c(CC(=O)N2CC[C@H](C(=O)O)C2)cc(C)cc1OP(=O)(O)O)C(C)(C)C(F)(F)F has measured pEC50 not below 7. Thanks!
n

Hello, I need to know if COC(=O)N[C@H](C(=O)N[C@@H](Cc1ccc(C#Cc2cnc(N3CC4CCC(C3)N4C3COC3)nc2)cc1)[C@H](CN(Cc1c(F)cc(-c2ccn(C(F)F)n2)cc1F)NC(=O)[C@@H](NC(=O)OC)C(C)(C)C(F)(F)F)OC(=O)CC(C)(C)c1c(CC(=O)N(CCCC(=O)O)CC(=O)O)cc(C)cc1OP(=O)(O)O)C(C)(C)C(F)(F)F has measured pEC50 not below 7. Thanks!
n

* * *

Would you mind telling me the reported Dog GI S9 [Intermediate A] of each entry?
measurement_protocol: Intestinal S9 Assay (dog GI S9)
Type: in vitro ADME
run_conditions: 2 μM, 1.0 mg/mL S9 protein, TRIS pH 7.4
Answers are plain numbers, in nM.

Answered examples (6):
# smiles_text, result_unit, Dog GI S9 [Intermediate A]
measured = [
    ("COC(=O)N[C@H](C(=O)N[C@@H](Cc1ccc(C#Cc2cnc(N3CC4CCC(C3)N4C3COC3)nc2)cc1)[C@H](CN(Cc1c(F)cc(-c2ccn(C(F)F)n2)cc1F)NC(=O)[C@@H](NC(=O)OC)C(C)(C)C(F)(F)F)OC(=O)CC(C)(C)c1c(CC(=O)Nc2cccc(C(=O)O)c2)cc(C)cc1OP(=O)(O)O)C(C)(C)C(F)(F)F", "nM", 210.8),
    ("COC(=O)N[C@H](C(=O)N[C@@H](Cc1ccc(C#Cc2cnc(N3CC4CCC(C3)N4C3COC3)nc2)cc1)[C@H](CN(Cc1c(F)cc(-c2ccn(C(F)F)n2)cc1F)NC(=O)[C@@H](NC(=O)OC)C(C)(C)C(F)(F)F)OC(=O)CC(C)(C)c1c(CC(=O)NCc2ccc(S(N)(=O)=O)cc2)cc(C)cc1OP(=O)(O)O)C(C)(C)C(F)(F)F", "nM", 38.3),
    ("COC(=O)N[C@H](C(=O)N[C@@H](Cc1ccc(C#Cc2cnc(N3CC4CCC(C3)N4C3COC3)nc2)cc1)[C@H](CN(Cc1c(F)cc(-c2ccn(C(F)F)n2)cc1F)NC(=O)[C@@H](NC(=O)OC)C(C)(C)C(F)(F)F)OC(=O)CC(C)(C)c1c(CC(=O)N[C@@H](CCC(=O)O)C(=O)O)cccc1OP(=O)(O)O)C(C)(C)C(F)(F)F", "nM", 1236),
    ("COC(=O)N[C@H](C(=O)N[C@@H](Cc1ccc(C#Cc2cnc(N3CC4CCC(C3)N4C3COC3)nc2)cc1)[C@H](CN(Cc1c(F)cc(-c2ccn(C(F)F)n2)cc1F)NC(=O)[C@@H](NC(=O)OC)C(C)(C)C(F)(F)F)OC(=O)CC(C)(C)c1c(CC(=O)NCC(=O)O)cccc1OP(=O)(O)O)C(C)(C)C(F)(F)F", "nM", 1224.2),
    ("COC(=O)N[C@H](C(=O)N[C@@H](Cc1ccc(C#Cc2cnc(N3CC4CCC(C3)N4C3COC3)nc2)cc1)[C@H](CN(Cc1c(F)cc(-c2ccn(C(F)F)n2)cc1F)NC(=O)[C@@H](NC(=O)OC)C(C)(C)C(F)(F)F)OC(=O)CC(C)(C)c1c(CC(=O)N[C@@H](CCC(=O)O)C(=O)O)cc(C)cc1OP(=O)(O)O)C(C)(C)C(F)(F)F", "nM", 965.9),
    ("COC(=O)N[C@H](C(=O)N[C@@H](Cc1ccc(C#Cc2cnc(N3CC4CCC(C3)N4C3COC3)nc2)cc1)[C@H](CN(Cc1c(F)cc(-c2ccn(C(F)F)n2)cc1F)NC(=O)[C@@H](NC(=O)OC)C(C)(C)C(F)(F)F)OC(=O)CC(C)(C)c1c(CC(=O)Nc2cc(C(=O)O)cc(C(=O)O)c2)cccc1OP(=O)(O)O)C(C)(C)C(F)(F)F", "nM", 1045.1),
]

Now for another entry.
Fill in reported Dog GI S9 [Intermediate A] for this entry: COC(=O)N[C@H](C(=O)N[C@@H](Cc1ccc(C#Cc2cnc(N3CC4CCC(C3)N4C3COC3)nc2)cc1)[C@H](CN(Cc1c(F)cc(-c2ccn(C(F)F)n2)cc1F)NC(=O)[C@@H](NC(=O)OC)C(C)(C)C(F)(F)F)OC(=O)CC(C)(C)c1c(CC(=O)N2C[C@@H](C(=O)O)C[C@H]2C(=O)O)cc(C)cc1OP(=O)(O)O)C(C)(C)C(F)(F)F
228.1

* * *

measurement_protocol: Intestinal S9 Assay (human GI S9)
Type: in vitro ADME
run_conditions: human, 1.0 mg/mL S9 protein, TRIS pH 7.4, read-out: Human GI S9 T½
Entries get a class label from measured half-life at 2 μM. See ranges: low: < 4 h; intermediate: ≥ 4 h and < 9 h; high: ≥ 9 h

Sample answers from the record:
# molecule, answer_label
records = [
    ("COC(=O)N[C@H](C(=O)N[C@@H](Cc1ccc(C#Cc2cnc(N3CC4CCC(C3)N4C3COC3)nc2)cc1)[C@H](CN(Cc1c(F)cc(-c2ccn(C(F)F)n2)cc1F)NC(=O)[C@@H](NC(=O)OC)C(C)(C)C(F)(F)F)OC(=O)CC(C)(C)c1c(CC(=O)Nc2cc(C(=O)O)cc(C(=O)O)c2)cccc1OP(=O)(O)O)C(C)(C)C(F)(F)F [Example 19]", "low"),
    ("COC(=O)N[C@H](C(=O)N[C@@H](Cc1ccc(C#Cc2cnc(N3CC4CCC(C3)N4C3COC3)nc2)cc1)[C@H](CN(Cc1c(F)cc(-c2ccn(C(F)F)n2)cc1F)NC(=O)[C@@H](NC(=O)OC)C(C)(C)C(F)(F)F)OC(=O)CC(C)(C)c1c(CC(=O)Nc2ccc(/C=C/C(=O)O)cc2)cc(C)cc1OP(=O)(O)O)C(C)(C)C(F)(F)F [Example 52]", "intermediate"),
    ("COC(=O)N[C@H](C(=O)N[C@@H](Cc1ccc(C#Cc2cnc(N3CC4CCC(C3)N4C3COC3)nc2)cc1)[C@H](CN(Cc1c(F)cc(-c2ccn(C(F)F)n2)cc1F)NC(=O)[C@@H](NC(=O)OC)C(C)(C)C(F)(F)F)OC(=O)CC(C)(C)c1c(CC(=O)NCP(=O)(O)O)cc(C)cc1OP(=O)(O)O)C(C)(C)C(F)(F)F [Example 104]", "low"),
    ("COC(=O)N[C@H](C(=O)N[C@@H](Cc1ccc(C#Cc2cnc(N3CC4CCC(C3)N4C3COC3)nc2)cc1)[C@H](CN(Cc1c(F)cc(-c2ccn(C(F)F)n2)cc1F)NC(=O)[C@@H](NC(=O)OC)C(C)(C)C(F)(F)F)OC(=O)CC(C)(C)c1c(CC(=O)N2CCC[C@H]2C(=O)O)cccc1OP(=O)(O)O)C(C)(C)C(F)(F)F [Example 46]", "intermediate"),
    ("COC(=O)N[C@H](C(=O)N[C@@H](Cc1ccc(C#Cc2cnc(N3CC4CCC(C3)N4C3COC3)nc2)cc1)[C@H](CN(Cc1c(F)cc(-c2ccn(C(F)F)n2)cc1F)NC(=O)[C@@H](NC(=O)OC)C(C)(C)C(F)(F)F)OC(=O)CC(C)(C)c1c(CC(=O)O)cccc1OP(=O)(O)O)C(C)(C)C(F)(F)F [Example 5]", "high"),
]

Pending molecule:
Assign a bin to COC(=O)N[C@H](C(=O)N[C@@H](Cc1ccc(C#Cc2cnc(N3CC4CCC(C3)N4C3COC3)nc2)cc1)[C@H](CN(Cc1c(F)cc(-c2ccn(C(F)F)n2)cc1F)NC(=O)[C@@H](NC(=O)OC)C(C)(C)C(F)(F)F)OC(=O)CC(C)(C)c1c(CC(=O)N2[C@@H](C)CC[C@H]2C(=O)O)cc(C)cc1OP(=O)(O)O)C(C)(C)C(F)(F)F [Example 54]
high

* * *

measurement_protocol: Solubility in FaSSIF
run_conditions: 23 °C, pH 6.5, fassif, thermodynamic from solid
Rule: solubility at 2 h under 4000 µg/mL gives 0 (no), otherwise 1 (yes).

# smiles_text, answer_label
data = [
    ("COC(=O)N[C@H](C(=O)N[C@@H](Cc1ccc(C#Cc2cnc(N3CC4CCC(C3)N4C3COC3)nc2)cc1)[C@H](CN(Cc1c(F)cc(-c2ccn(C(F)F)n2)cc1F)NC(=O)[C@@H](NC(=O)OC)C(C)(C)C(F)(F)F)OC(=O)CC(C)(C)c1c(CC(=O)N2C[C@H]3[C@@H]([C@H]2C(=O)O)C3(C)C)cc(C)cc1OP(=O)(O)O)C(C)(C)C(F)(F)F", "0 (no)"),
    ("COC(=O)N[C@H](C(=O)N[C@@H](Cc1ccc(C#Cc2cnc(N3CC4CCC(C3)N4C3COC3)nc2)cc1)[C@H](CN(Cc1c(F)cc(-c2ccn(C(F)F)n2)cc1F)NC(=O)[C@@H](NC(=O)OC)C(C)(C)C(F)(F)F)OC(=O)OCOC(=O)CC(C)(C)c1c(CC(=O)N[C@@H](CCC(N)=O)C(=O)O)cc(C)cc1OP(=O)(O)O)C(C)(C)C(F)(F)F", "1 (yes)"),
]

Hello, I need to know if COC(=O)N[C@H](C(=O)N[C@@H](Cc1ccc(C#Cc2cnc(N3CC4CCC(C3)N4C3COC3)nc2)cc1)[C@H](CN(Cc1c(F)cc(-c2ccn(C(F)F)n2)cc1F)NC(=O)[C@@H](NC(=O)OC)C(C)(C)C(F)(F)F)OC(=O)CC(C)(C)c1c(CC(=O)Nc2ccc(S(=O)(=O)O)cc2)cc(C)cc1OP(=O)(O)O)C(C)(C)C(F)(F)F has measured solubility at 2 h not below 4000 µg/mL. Thanks!
1 (yes)

Hello, I need to know if COC(=O)N[C@H](C(=O)N[C@@H](Cc1ccc(C#Cc2cnc(N3CC4CCC(C3)N4C3COC3)nc2)cc1)[C@H](CN(Cc1c(F)cc(-c2ccn(C(F)F)n2)cc1F)NC(=O)[C@@H](NC(=O)OC)C(C)(C)C(F)(F)F)OC(=O)CC(C)(C)c1c(CC(=O)N[C@@H](Cc2ccc(C(=O)O)cc2)C(=O)O)cc(C)cc1OP(=O)(O)O)C(C)(C)C(F)(F)F has measured solubility at 2 h not below 4000 µg/mL. Thanks!
1 (yes)

Hello, I need to know if COC(=O)N[C@H](C(=O)N[C@@H](Cc1ccc(C#Cc2cnc(N3CC4CCC(C3)N4C3COC3)nc2)cc1)[C@H](CN(Cc1c(F)cc(-c2ccn(C(F)F)n2)cc1F)NC(=O)[C@@H](NC(=O)OC)C(C)(C)C(F)(F)F)OC(=O)CC(C)(C)c1c(CC(=O)N(CCC(=O)O)[C@@H](CCC(=O)O)C(=O)O)cc(C)cc1OP(=O)(O)O)C(C)(C)C(F)(F)F has measured solubility at 2 h not below 4000 µg/mL. Thanks!
1 (yes)
